Target: CDK6/cyclin D3 (Homo sapiens)
Construct: purchased Carna
Sequence (Q00534 whole entry, one chain of several): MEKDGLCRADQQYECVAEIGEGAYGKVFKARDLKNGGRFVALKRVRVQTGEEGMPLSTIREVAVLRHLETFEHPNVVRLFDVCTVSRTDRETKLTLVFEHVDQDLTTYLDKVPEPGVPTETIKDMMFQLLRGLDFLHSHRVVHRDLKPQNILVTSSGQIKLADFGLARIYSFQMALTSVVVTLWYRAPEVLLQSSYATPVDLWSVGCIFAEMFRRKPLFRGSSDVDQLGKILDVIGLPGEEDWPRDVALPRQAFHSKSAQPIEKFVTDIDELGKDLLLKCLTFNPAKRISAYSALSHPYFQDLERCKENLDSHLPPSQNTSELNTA
Experiment: In vitro biochemical kinase activity assay for CDK6/cyclin D3 (HTRF)
Conditions: data marked with *: 1 mM ATP in Step 1
pIC50: −log10 of the molar value.
Classify as follows. Reported pIC50 greater than or equal to 7: label 1. Reported pIC50 below: label 0.

Below are worked cases with known answers.
compound	measurementTarget	assignedLabel
CCN1CC2(C1)CN(c1ccc(Nc3ncc(Cl)c(C#Cc4cnc(CN5[C@@H](C)COC[C@@H]5C)n4C(C)C)n3)nc1)C2	CDK6/cyclin D3 (Homo sapiens)	label 1
CC(C)c1c(C#Cc2nc(Nc3ccc(N4CC5(CN(C)C5)C4)cn3)ncc2F)cnn1C	CDK6/cyclin D3 (Homo sapiens)	label 1
CC(C)n1c(C#Cc2nc(N[C@@H]3CCOC[C@H]3O)ncc2F)cnc1C(C)(C)O	CDK6/cyclin D3 (Homo sapiens)	label 0
Cn1ncc(C#Cc2nc(N[C@@H]3CCOC[C@H]3O)ncc2Cl)c1C(C)(C)C	CDK6/cyclin D3 (Homo sapiens)	label 0
CCN1CCN(Cc2ccc(Nc3ncc(Cl)c(C#Cc4cnn(C)c4C(C)C)n3)nc2)CC1	CDK6/cyclin D3 (Homo sapiens)	label 1

[in] Kindly determine if pIC50 recorded for CC1CCOc2ncc(C#Cc3nc(N[C@@H]4CCOC[C@H]4O)ncc3Cl)n21 (some centres unmarked) is above or exactly 7.
[out] label 0

[in] I'd appreciate it if you could say whether CCN1CC2(C1)CN(c1ccc(Nc3ncc(Cl)c(C#Cc4cnc(C)n4C(C)C)n3)nc1)C2 has pIC50 at least equal to 7.
[out] label 1

[in] Quick check, pIC50 >= 7? CC(C)n1c(C#Cc2nc(Nc3ccc(C4C5CN(C)CC54)cn3)ncc2Cl)cnc1C(C)(C)O (centres unmarked)
[out] label 1

====

Target: CDK4/cyclin D3 (Homo sapiens)
Construct: purchased Carna
Sequence (P11802 whole entry): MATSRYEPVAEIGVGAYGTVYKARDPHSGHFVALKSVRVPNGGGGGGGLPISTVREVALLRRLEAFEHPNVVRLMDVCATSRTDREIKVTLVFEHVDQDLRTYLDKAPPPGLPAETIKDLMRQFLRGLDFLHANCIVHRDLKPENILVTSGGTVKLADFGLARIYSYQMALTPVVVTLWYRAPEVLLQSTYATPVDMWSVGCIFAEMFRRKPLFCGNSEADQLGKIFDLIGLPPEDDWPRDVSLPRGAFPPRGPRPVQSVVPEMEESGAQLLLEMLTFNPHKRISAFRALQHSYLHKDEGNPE
Sequence (P30281 whole entry partner): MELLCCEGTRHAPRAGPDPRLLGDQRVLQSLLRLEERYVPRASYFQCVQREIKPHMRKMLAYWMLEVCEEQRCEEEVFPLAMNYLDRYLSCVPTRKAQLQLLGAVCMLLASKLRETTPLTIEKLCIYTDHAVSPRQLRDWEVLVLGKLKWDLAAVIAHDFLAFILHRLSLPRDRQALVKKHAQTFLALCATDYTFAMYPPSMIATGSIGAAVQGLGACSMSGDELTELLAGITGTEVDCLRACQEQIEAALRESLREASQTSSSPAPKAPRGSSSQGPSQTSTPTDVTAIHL
Assay: In vitro biochemical kinase activity assay for CDK4/cyclin D3 (HTRF)
Settings: data marked with *: 1 mM ATP in Step 1
propertyName: pIC50
Give bare numbers, as −log10 of the molar value.

Guide cases for pIC50, answers given:
compound	measurementTarget	propertyName	reportedMeasurement
CC(C)n1c(C#Cc2nc(N[C@H]3CC[C@H](NS(C)(=O)=O)CC3)ncc2Cl)cnc1C(C)(C)O	CDK4/cyclin D3 (Homo sapiens)	pIC50	7.55
CC(C)n1c(C#Cc2nc(N[C@@H]3CCC[C@@H](C(=O)N(C)C)C3)ncc2Cl)cnc1C(C)(C)O	CDK4/cyclin D3 (Homo sapiens)	pIC50	5.48

Give pIC50 for each of the items listed below.
1. CC(C)n1c(C#Cc2nc(Nc3ccc(C4CCN(C)CC4)cn3)ncc2F)cnc1C(C)(C)O
2. CC(C)n1c(C#Cc2nc(N[C@@H]3CCOC[C@H]3O)ncc2Cl)cnc1CN1[C@H](C)COC[C@@H]1C
3. CCN1CCN(Cc2ccc(Nc3ncc(Cl)c(C#Cc4cnc(CN5CCC[C@H](O)C5)n4C(C)C)n3)nc2)CC1
4. CC(C)n1c(C#Cc2nc(Nc3ccc(C(=O)N4CCCC4)cn3)ncc2Cl)cnc1C(C)(C)O
5. CC(C)n1c(C#Cc2nc(N[C@@H]3CCOC[C@H]3O)ncc2Cl)cnc1CN1CCC[C@H](C#N)C1
6. CC(=O)N[C@@H]1COCC[C@H]1Nc1ncc(Cl)c(C#Cc2cnc(C(C)(C)O)n2C(C)C)n1
7. CCN1CC2(C1)CN(c1ccc(Nc3ncc(Cl)c(C#Cc4cnc(CN5[C@@H](C)COC[C@@H]5C)n4C(C)C)n3)nc1)C2
8. CC(C)n1c(C#Cc2nc(N[C@@H]3CCOC[C@H]3O)ncc2F)cnc1CN1CCC[C@H](O)C1

[out]
1. 8.19
2. 7.77
3. 8.05
4. 8.10
5. 7.92
6. 5.40
7. 8.25
8. 5.98

Provenance of the data: patent EP4782445A1
